# System: Culex quinquefasciatus
# testDetails: Insecticidal activity against Culex quinquefasciatus assessed as contact mortality at 0.025 mg/ml at 24 hr by standard immersion method relative to control
# Type: functional
measurementLabel: mortality at 25 µg/mL (%)
A number alone suffices; assume %.

Answered examples (4):
molecule: CC(C)C(C(=O)OC(C#N)c1cccc(Oc2ccccc2)c1)c1ccc(Cl)cc1 (stereo unspecified) [FENVALERATE]
mortality at 25 µg/mL, %: 88
--
molecule: C=CC(OC(=O)C(c1ccc(Cl)cc1)C(C)C)c1ccc(OC(C)=O)c(OC)c1 (stereo unspecified)
mortality at 25 µg/mL, %: 85
--
molecule: C=CC(OC(=O)C(c1ccc(Cl)cc1)C(C)C)c1ccc(OCC)c(OC)c1 (stereo unspecified)
mortality at 25 µg/mL, %: 96
--
molecule: C=CC(OC(=O)C1C(C=C(C)C)C1(C)C)c1ccc(OCC)c(OC)c1 (stereo unspecified)
mortality at 25 µg/mL, %: 97

Ask | So what does the record say about mortality at 25 µg/mL for C=CC(OC(=O)C1C(C=C(C)C)C1(C)C)c1ccc(OC(C)=O)c(OC)c1 (stereo unspecified) ?
Reply | 88

Ask | mortality at 25 µg/mL for C=CCC1=C(C)C(OC(=O)C2C(C=C(C)C)C2(C)C)CC1=O (stereo unspecified) ?
Reply | 85

This collection of values is drawn from ChEMBL document CHEMBL3045308.
